Where these numbers come from: ChEMBL document CHEMBL4673379

Tested on: Vero
Experiment: Cytotoxicity against African green monkey Vero cells assessed as reduction in cell growth by coulter counter analysis
Type: cell-based
Settings: chlorocebus sabaeus
Item-by-item account of CC50

{"columns": ["compound", "CC50 / µM"],
 "data": [
  ["Nc1ccn([C@@H]2O[C@H](CO)[C@@H](O)C2(F)F)c(=O)n1", 0.0043],
  ["C[C@H](NP(=O)(OC[C@@]1(F)O[C@@H](n2ccc(N)nc2=O)C(F)(F)[C@@H]1O)Oc1ccccc1)C(=O)OCc1ccccc1 (some centres undefined)", 1.44],
  ["Nc1ccn([C@@H]2O[C@](F)(CO)[C@@H](O)C2(F)F)c(=O)n1", 0.26],
  ["C[C@H](NP(=O)(OC[C@H]1O[C@@H](n2ccc(N)nc2=O)C(F)(F)[C@@H]1O)Oc1ccccc1)C(=O)OCc1ccccc1 (some centres undefined) [FOSGEMCITABINE PALABENAMIDE]", 0.02]
]}
